- SYSTEM_UNDER_TEST: UniProt P04150
- Sequence (P04150 whole entry): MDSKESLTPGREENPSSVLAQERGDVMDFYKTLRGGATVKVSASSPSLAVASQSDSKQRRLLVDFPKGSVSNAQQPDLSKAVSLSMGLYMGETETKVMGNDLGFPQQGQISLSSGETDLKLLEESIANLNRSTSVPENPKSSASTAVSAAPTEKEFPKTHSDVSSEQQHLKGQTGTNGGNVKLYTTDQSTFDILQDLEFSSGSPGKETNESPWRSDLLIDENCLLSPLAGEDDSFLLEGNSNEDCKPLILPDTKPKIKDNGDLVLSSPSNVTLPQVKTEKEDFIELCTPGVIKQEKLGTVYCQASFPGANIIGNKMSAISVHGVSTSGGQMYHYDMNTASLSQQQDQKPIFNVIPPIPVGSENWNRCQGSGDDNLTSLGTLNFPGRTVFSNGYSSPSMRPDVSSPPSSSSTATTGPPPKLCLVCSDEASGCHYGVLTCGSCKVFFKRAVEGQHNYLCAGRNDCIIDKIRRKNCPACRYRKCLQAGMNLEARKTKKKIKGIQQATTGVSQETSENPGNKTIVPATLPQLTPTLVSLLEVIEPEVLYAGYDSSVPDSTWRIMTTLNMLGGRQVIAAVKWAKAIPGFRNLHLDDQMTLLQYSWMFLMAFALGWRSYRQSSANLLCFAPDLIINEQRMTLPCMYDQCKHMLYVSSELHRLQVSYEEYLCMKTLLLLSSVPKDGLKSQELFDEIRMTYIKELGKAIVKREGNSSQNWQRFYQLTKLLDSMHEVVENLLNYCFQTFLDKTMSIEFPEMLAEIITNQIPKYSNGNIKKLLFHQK
- EXPERIMENT: Transrepression Assay (GITAR), TNFα-β-lactamase reporter in U937 cells
- Type: cell-based
- Parameters: U937 cells contain an endogenous glucocorticoid receptor (GR); endogenous in cells; host or cells: U937 cells stably transfected with the TNF-alpha promoter/beta-lactamase reporter
- CONDITION_DESCRIPTION: U937 cells; inflection point; read-out: Transrepression U937 Cells GITAR IP
READOUT_TYPE: pEC50
Answer as the number alone; pEC50 is minus log10 of concentration in mol/L.

// known answers, use as guide
query: Look up pEC50 for this compound: C[C@]12Cc3cnn(-c4ccc(F)cc4)c3C=C1CC[C@@H]2CN(CCc1ccccn1)S(=O)(=O)Cc1ccccn1 [Example 165]
result: 6.54

query: Look up pEC50 for this compound: C[C@]12Cc3cnn(-c4ccc(F)cc4)c3C=C1CC[C@@H]2CN(CCc1ccccc1F)S(=O)(=O)Cc1cccnc1 [Example 124]
result: 6.60

query: Look up pEC50 for this compound: CCCS(=O)(=O)N(CCc1ccccc1F)C[C@H]1CCC2=Cc3c(cnn3-c3ccc(F)cc3)C[C@@]21C [Example 87]
result: 6.67

query: Look up pEC50 for this compound: COc1ccccc1CCN(C[C@H]1CCC2=Cc3c(cnn3-c3ccc(F)cc3)C[C@@]21C)S(=O)(=O)c1ccccc1F [Example 90]
result: 6.19

query: Look up pEC50 for this compound: C[C@]12Cc3cnn(-c4ccc(F)cc4)c3C=C1CC[C@@H]2CN(CCc1ccccc1F)S(=O)(=O)c1ccccc1Cl [Example 100]
result: 6.72

query: Look up pEC50 for this compound: CN(C[C@H]1CCC2=Cc3c(cnn3-c3ccc(F)cc3)C[C@@]21C)S(=O)(=O)CC(F)(F)F [Example 177]
result: 6.75

Further cases:
query: Look up pEC50 for this compound: C[C@]12Cc3cnn(-c4ccc(F)cc4)c3C=C1CC[C@@H]2CN(CC#N)S(=O)(=O)c1ccc(Oc2ccccn2)cc1 [Example 45]
result: 5.86

query: Look up pEC50 for this compound: C[C@]12Cc3cnn(-c4ccc(F)cc4)c3C=C1CC[C@@H]2CN(CCc1ccccc1F)S(=O)(=O)c1ccccc1F [Example 86]
result: 6.58

query: Look up pEC50 for this compound: C[C@]12Cc3cnn(-c4ccc(F)cc4)c3C=C1CC[C@@H]2CN(CCO)S(=O)(=O)Cc1ccccc1 [Example 75]
result: 6.32

query: Look up pEC50 for this compound: C[C@]12Cc3cnn(-c4ccc(F)cc4)c3C=C1CC[C@@H]2CN(CC(O)C(F)F)S(=O)(=O)Cc1cccnc1 (stereo partly shown) [Example 154]
result: 6.21
